biological target: Cy3-CRX HD;NRL DBD (;, UniProt O43186;P54845 31-107;128-237, |); assay: smTIRFM
Sequence (O43186 31-107, chain 1 of 2): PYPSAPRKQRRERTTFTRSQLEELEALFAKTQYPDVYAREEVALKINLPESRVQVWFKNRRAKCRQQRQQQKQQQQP
Sequence (P54845 128-237, chain 2 of 2): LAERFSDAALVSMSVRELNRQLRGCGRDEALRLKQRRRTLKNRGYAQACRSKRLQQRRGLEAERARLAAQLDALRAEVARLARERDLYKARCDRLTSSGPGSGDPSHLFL
Readout Kind: Kd
State the value with its unit after it.

Problem: // Kd lookup, key: NRE-Ret4 38-mer biotinylated (dsDNA) DNA 1: CCAGATGCTGATTCAGCCAGGAGCTTAGGAGGGGGAGG DNA 2: CCTCCCCCTCCTAAGCTCCTGGCTGAATCAGCATCTGG
Solution: 39.6 nM
